Recorded values, source patent US8604055B2.

# tested.target: Recombinant CETP enzyme (Homo sapiens, UniProt P11597)
# test.description: In vitro fluorescence-based CETP inhibition assay (BODIPY-CE transfer from donor to acceptor microemulsions)
# protocol.conditions: recombinant CETP 0.14 ng/μl; transfer of fluorescent cholesteryl ester monitored over 2 hours; vs DMSO controls
property.name: IC50

get_value(item= CCOC(=O)NC(=S)N(Cc1cc(C(F)(F)F)cc(C(F)(F)F)c1)Cc1cc2ccccc2nc1N(CC)CC1CCCC1 , readout=IC50) returns ≤ 5000 nM

get_value(item= CCN(CC1CCCC1)c1nc2c(cc1CN(Cc1cc(C(F)(F)F)cc(C(F)(F)F)c1)c1nc(C(F)(F)F)co1)c(C)nn2C , readout=IC50) returns ≤ 1000 nM

get_value(item= CCCCN(CC)c1nc2ccccc2cc1CN(Cc1cc(C(F)(F)F)cc(C(F)(F)F)c1)c1nnn(C)n1 , readout=IC50) returns ≤ 1000 nM

----------
# Lookup of reported IC50 keyed by entry
# tested.target: Recombinant CETP enzyme (Homo sapiens)
# Sequence (P11597 18-493): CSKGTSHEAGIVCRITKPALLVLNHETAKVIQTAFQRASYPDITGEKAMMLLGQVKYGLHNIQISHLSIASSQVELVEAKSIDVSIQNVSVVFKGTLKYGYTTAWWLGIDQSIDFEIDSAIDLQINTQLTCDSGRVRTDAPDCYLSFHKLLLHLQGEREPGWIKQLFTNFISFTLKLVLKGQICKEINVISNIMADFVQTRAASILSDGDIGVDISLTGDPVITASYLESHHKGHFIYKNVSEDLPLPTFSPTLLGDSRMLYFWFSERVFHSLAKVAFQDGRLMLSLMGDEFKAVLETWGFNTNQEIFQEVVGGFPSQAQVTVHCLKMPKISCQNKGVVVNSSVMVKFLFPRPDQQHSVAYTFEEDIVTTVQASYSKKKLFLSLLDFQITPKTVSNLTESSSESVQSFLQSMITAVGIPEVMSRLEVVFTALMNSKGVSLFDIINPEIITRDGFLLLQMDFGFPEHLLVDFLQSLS
# test.description: In vitro fluorescence-based CETP inhibition assay (BODIPY-CE transfer from donor to acceptor microemulsions)
# protocol.conditions: recombinant CETP 0.14 ng/μl; transfer of fluorescent cholesteryl ester monitored over 2 hours; vs DMSO controls

Some compounds with known IC50 results, for comparison:
- compound: "CCOC(=N)N(Cc1cc(C(F)(F)F)cc(C(F)(F)F)c1)Cc1cc2ccccc2nc1N(CC)CC1CCCC1 [Example 61]"
  tested.target: "Recombinant CETP enzyme (Homo sapiens)"
  result: "≤ 5000 nM"
- compound: "CCN(CC1CCCC1)c1nc2onc(C)c2cc1CN(Cc1cc(C(F)(F)F)cc(C(F)(F)F)c1)c1nnn(C)n1 [Example 33]"
  tested.target: "Recombinant CETP enzyme (Homo sapiens)"
  result: "≤ 1000 nM"
- compound: "CCN(CC1CCC1)c1nc2c(cc1CN(Cc1cc(C(F)(F)F)cc(C(F)(F)F)c1)c1cc(C)on1)c(C)nn2C [Example 10]"
  tested.target: "Recombinant CETP enzyme (Homo sapiens)"
  result: "≤ 1000 nM"
- compound: "Cc1cccc2cc(CN(Cc3cc(C(F)(F)F)cc(C(F)(F)F)c3)c3ncnc(Cl)n3)c(N(CC3CC3)CC3CC3)nc12 [Example 117]"
  tested.target: "Recombinant CETP enzyme (Homo sapiens)"
  result: "≤ 1000 nM"
- compound: "Cc1cc(N(Cc2cc(C(F)(F)F)cc(C(F)(F)F)c2)Cc2cc3c(C)nn(C)c3nc2N(CC2CC2)CC2CC2)no1 [Example 11]"
  tested.target: "Recombinant CETP enzyme (Homo sapiens)"
  result: "≤ 1000 nM"
- compound: "CCN(CC1CCCC1)c1nc2ccccc2cc1CN(Cc1cc(C(F)(F)F)cc(C(F)(F)F)c1)c1nnc(C)o1 [Example 58]"
  tested.target: "Recombinant CETP enzyme (Homo sapiens)"
  result: "≤ 5000 nM"

get_value(item= CCN(CC1CCCC1)c1nc2c(cc1CN(Cc1cc(C(F)(F)F)cc(C(F)(F)F)c1)C(=O)OC)CCC2 [Example 75] , readout=IC50) returns ≤ 5000 nM
